- subjectOfTest: human ether-à-go-go-related gene (hERG) potassium channel (human)
- assayMethodText: primary screen, population patch clamp on CHO cells stably expressing hERG; higher = less effect of the substance;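 also: peak tail current of the secondary pulse compared with the same well before compound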
In all, about 310,000 compounds went through this assay and about 14,000 (4.5%) showed an effect of 50% or more. The effect is printed as a negative number. The sample holds strong results, similar compounds and a random draw of the others, so the mix is not that of the screen.
Would you mind labelling by hERG current change (%, negative = inhibition) at 10uM? At or over -20% is Met, under is Not met.

Past entries and their recorded results:
compound: COCC1CCN(C(=O)c2oc3c(F)cccc3c2C)C1 (centres unmarked)
labelClass: Met

compound: CCOCCCN(C(=O)c1snc(C(N)=O)c1N)C(C(=O)NCCC(C)C)c1ccc(Cl)cc1 (centres unmarked)
labelClass: Not met

compound: Cc1ccc(-n2c(C)nnc2SCC(=O)N2CCc3ccccc3C2)cc1C
labelClass: Not met

Please check the record Cc1ccc(CNC(=O)CN2CCN(Cc3ccc(C)cc3)C2=O)cc1 and state if its hERG current change (%, negative = inhibition) at 10uM is at or above -20%.
Not met

Please check the record CCOc1ccc(C(C(=O)NC2CCCCC2)N(CCOC)C(=O)c2snc(C(N)=O)c2N)cc1 (centres unmarked) and state if its hERG current change (%, negative = inhibition) at 10uM is at or above -20%.
Not met

----------
- subjectOfTest: human ether-à-go-go-related gene (hERG) potassium channel (human, UniProt Q12809)
- Sequence (Q12809 whole entry, looked up): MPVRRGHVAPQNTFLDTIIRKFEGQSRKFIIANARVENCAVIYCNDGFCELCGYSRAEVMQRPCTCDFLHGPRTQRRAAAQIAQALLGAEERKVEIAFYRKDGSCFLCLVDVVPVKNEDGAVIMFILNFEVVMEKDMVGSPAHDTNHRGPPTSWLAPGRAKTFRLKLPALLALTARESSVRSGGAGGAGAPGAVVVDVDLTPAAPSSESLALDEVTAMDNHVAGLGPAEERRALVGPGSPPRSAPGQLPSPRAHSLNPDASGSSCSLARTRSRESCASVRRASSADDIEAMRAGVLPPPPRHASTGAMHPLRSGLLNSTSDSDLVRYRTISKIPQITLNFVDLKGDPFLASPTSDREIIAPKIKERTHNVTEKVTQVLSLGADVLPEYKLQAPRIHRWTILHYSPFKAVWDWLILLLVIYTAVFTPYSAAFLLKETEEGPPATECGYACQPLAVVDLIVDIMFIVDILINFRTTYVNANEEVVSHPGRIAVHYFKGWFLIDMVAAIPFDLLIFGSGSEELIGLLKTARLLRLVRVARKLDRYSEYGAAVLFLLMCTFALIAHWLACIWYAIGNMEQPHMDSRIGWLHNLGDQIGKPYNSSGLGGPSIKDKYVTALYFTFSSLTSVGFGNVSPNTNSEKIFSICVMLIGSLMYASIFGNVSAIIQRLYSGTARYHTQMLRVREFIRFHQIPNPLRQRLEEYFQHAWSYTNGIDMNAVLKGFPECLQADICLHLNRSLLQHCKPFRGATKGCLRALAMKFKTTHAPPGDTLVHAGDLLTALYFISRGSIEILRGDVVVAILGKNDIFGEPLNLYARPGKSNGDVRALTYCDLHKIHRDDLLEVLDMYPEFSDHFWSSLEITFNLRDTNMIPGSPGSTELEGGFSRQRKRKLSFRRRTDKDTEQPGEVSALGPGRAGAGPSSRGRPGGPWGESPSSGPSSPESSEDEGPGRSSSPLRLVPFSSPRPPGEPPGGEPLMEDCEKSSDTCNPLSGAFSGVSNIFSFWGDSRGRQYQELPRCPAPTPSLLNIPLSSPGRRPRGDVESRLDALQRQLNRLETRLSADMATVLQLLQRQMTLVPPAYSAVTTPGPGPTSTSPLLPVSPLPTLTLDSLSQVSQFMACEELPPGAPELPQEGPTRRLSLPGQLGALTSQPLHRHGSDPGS
- assayMethodText: primary screen, population patch clamp on CHO cells stably expressing hERG; higher = less effect of the substance
In all, about 310,000 compounds went through this assay and about 14,000 (4.5%) showed an effect of 50% or more. Effects have a minus sign here. The sample holds strong results, similar compounds and a random draw of the others, so the mix is not that of the screen.
parameterMeasured: hERG current change (%, negative = inhibition) at 10uM

The examples below pair each entry with its known result.
compound: CC(=O)Nc1ccc(S(=O)(=O)NC(C)c2ccccc2)cc1 (stereo not drawn)
subjectOfTest: human ether-à-go-go-related gene (hERG) potassium channel (human, UniProt Q12809)
result: 13.2%
//
compound: CC1CC(C)CN(CCOc2ccccc2-c2ccccc2)C1.O=C(O)C(=O)O (stereo not drawn)
subjectOfTest: human ether-à-go-go-related gene (hERG) potassium channel (human, UniProt Q12809)
result: -68.5%
//
compound: C=CCc1cc(Cl)ccc1OCCn1ccnc1.O=C(O)C(=O)O
subjectOfTest: human ether-à-go-go-related gene (hERG) potassium channel (human, UniProt Q12809)
result: -10.1%
//
compound: N#C/C(=C\c1ccc(N2CCOCC2)o1)C(=O)NCCc1ccccc1
subjectOfTest: human ether-à-go-go-related gene (hERG) potassium channel (human, UniProt Q12809)
result: -57.9%
//
compound: O=C(NC1CCCC1)C(c1ccncc1)N(Cc1ccccc1)C(=O)Cc1cccs1 (stereo not drawn)
subjectOfTest: human ether-à-go-go-related gene (hERG) potassium channel (human, UniProt Q12809)
result: -14.1%
//
compound: NC(=O)[C@H]1CC2(CC(c3cccc(NC(=O)CC(c4ccccc4)c4ccccc4)c3)=NO2)CN1C(=O)C(c1ccccc1)c1ccccc1 (stereo partly drawn)
subjectOfTest: human ether-à-go-go-related gene (hERG) potassium channel (human, UniProt Q12809)
result: 8.82%
//
compound: CCN(CC)C(=O)N1CCN(C(=O)N2CCOCC2)CC1
subjectOfTest: human ether-à-go-go-related gene (hERG) potassium channel (human, UniProt Q12809)
result: 29.8%
//
compound: Cc1cccc(OCC(=O)N2CCCc3ccccc32)c1
subjectOfTest: human ether-à-go-go-related gene (hERG) potassium channel (human, UniProt Q12809)
result: 8.85%
//
compound: CCCCCOC(=O)C1=C(C)Nc2nnnn2C1c1ccc(OC)c(OC)c1OC (stereo not drawn)
subjectOfTest: human ether-à-go-go-related gene (hERG) potassium channel (human, UniProt Q12809)
result: -41.4%
//
compound: CC1CCCN(CCOCCOc2ccccc2-c2ccccc2)C1.O=C(O)C(=O)O (stereo not drawn)
subjectOfTest: human ether-à-go-go-related gene (hERG) potassium channel (human, UniProt Q12809)
result: -72.9%

Consider the compound CC(O)c1nc2cc([N+](=O)[O-])ccc2n1Cc1ccccc1 (stereo not drawn) and give its recorded hERG current change (%, negative = inhibition) at 10uM.
1.79%

Consider the compound COc1ccccc1C(=O)NCC(=O)NC(C)CCc1ccccc1 (stereo not drawn) and give its recorded hERG current change (%, negative = inhibition) at 10uM.
1.99%

Consider the compound Cc1ccc(Oc2ccc(OCC(=O)NC(C)C(=O)O)cc2)cc1 (stereo not drawn) and give its recorded hERG current change (%, negative = inhibition) at 10uM.
-25.1%

Consider the compound CCCn1c(N2CCN(C(=O)N3CCCCC3)CC2)nc2ccccc21.Cl and give its recorded hERG current change (%, negative = inhibition) at 10uM.
-20.4%

Consider the compound CS(=O)(=O)c1ccccc1C(=O)NCCC(c1ccccc1)c1ccccc1 and give its recorded hERG current change (%, negative = inhibition) at 10uM.
-51.9%

Consider the compound CC(=O)N(CN1C(=O)CCC1=O)c1cccc(Cl)c1 and give its recorded hERG current change (%, negative = inhibition) at 10uM.
-17%

Consider the compound CN1CCN(CCN2CCn3c2nc2ccccc23)CC1.Cl and give its recorded hERG current change (%, negative = inhibition) at 10uM.
-7.38%

Consider the compound COc1ccccc1C(=O)NCC(=O)NCCC(c1ccccc1)c1ccccc1 and give its recorded hERG current change (%, negative = inhibition) at 10uM.
-64.4%

Consider the compound CC1CN(CCOCCOc2ccccc2-c2ccccc2)CC(C)O1.O=C(O)C(=O)O (stereo not drawn) and give its recorded hERG current change (%, negative = inhibition) at 10uM.
-13.5%

Consider the compound Cl.c1ccc2c(c1)nc1n2CCN1CCN1CCCC1 and give its recorded hERG current change (%, negative = inhibition) at 10uM.
-3.08%

Consider the compound Cc1cccc(Cn2c(C(C)O)nc3ccccc32)c1 (stereo not drawn) and give its recorded hERG current change (%, negative = inhibition) at 10uM.
5.37%

----------
- subjectOfTest: human ether-à-go-go-related gene (hERG) potassium channel (human, UniProt Q12809)
- assayMethodText: primary screen, population patch clamp on CHO cells stably expressing hERG; higher = less effect of the substance
Hit rate of the full screen: of about 310,000 compounds, about 14,000 (4.5%) showed an effect of 50% or more. The effect is printed as a negative number. The entries come from a sample that favours strong results as a whole.
parameterMeasured: hERG current change (%, negative = inhibition) at 10uM (%)
Give the number; % is assumed, so skip it.

Consider the compound CC1CCN(CC(=O)Nc2ccccc2C#N)CC1 and give its recorded hERG current change (%, negative = inhibition) at 10uM.
3.06

Consider the compound O=C(Nc1cccc(Cl)c1)C1CCCCC1 and give its recorded hERG current change (%, negative = inhibition) at 10uM.
-9.14

Consider the compound CCc1nc(N2CCCCC2)c2oc3ccccc3c2n1.Cl and give its recorded hERG current change (%, negative = inhibition) at 10uM.
6.57

Consider the compound N#Cc1ccsc1NC(=O)CN1CCCCC1 and give its recorded hERG current change (%, negative = inhibition) at 10uM.
-5.6

Consider the compound Cc1cccc(N2CCN(S(=O)(=O)c3cc(-c4cc(C)no4)ccc3C)CC2C)c1 (stereo not shown) and give its recorded hERG current change (%, negative = inhibition) at 10uM.
18.9

Consider the compound Cc1nc(N2CCOCC2)c2oc3ccccc3c2n1 and give its recorded hERG current change (%, negative = inhibition) at 10uM.
-9.35

Consider the compound COc1ccc2nc(Sc3c([N+](=O)[O-])nc(C)n3Cc3ccccc3)[nH]c2c1 and give its recorded hERG current change (%, negative = inhibition) at 10uM.
-12.7

----------
- subjectOfTest: human ether-à-go-go-related gene (hERG) potassium channel (human, UniProt Q12809)
- assayMethodText: primary screen, population patch clamp on CHO cells stably expressing hERG; higher = less effect of the substance
The whole screen tested about 310,000 compounds, of which about 14,000 (4.5%) showed an effect of 50% or more. Effects have a minus sign here. Many of the other results were omitted from the sample, so strong results are more common in it than they were.
parameterMeasured: hERG current change (%, negative = inhibition) at 10uM (%)
Give the number; % is assumed, so skip it.

compound: O=S(=O)(c1ccc(Cl)cc1)N1CCC(N2CCCCCC2)CC1
subjectOfTest: human ether-à-go-go-related gene (hERG) potassium channel (human, UniProt Q12809)
quantitativeResult: -49.9

compound: CN(C(=O)c1ccc(NC(=O)Cc2ccc(NC(=O)C3CCCN(C(=O)C4CC4)C3)cc2)cc1)C1CC1 (centres unmarked)
subjectOfTest: human ether-à-go-go-related gene (hERG) potassium channel (human, UniProt Q12809)
quantitativeResult: -4.41

compound: CC(=O)N1c2ccc(Cl)cc2C2OCCC2C1c1ccco1 (centres unmarked)
subjectOfTest: human ether-à-go-go-related gene (hERG) potassium channel (human, UniProt Q12809)
quantitativeResult: 9.11

Consider the compound CCn1c(SC)nnc1-c1ccc(S(=O)(=O)N2CCCCC2)cc1 and give its recorded hERG current change (%, negative = inhibition) at 10uM.
-12.1

Consider the compound O=C(Nc1c2c(nn1-c1ccccc1)CS(=O)(=O)C2)c1ccccc1Br and give its recorded hERG current change (%, negative = inhibition) at 10uM.
-0.51

Consider the compound CCn1c(SCc2ccccc2)nnc1-c1ccc(S(=O)(=O)N2CCCCC2)cc1 and give its recorded hERG current change (%, negative = inhibition) at 10uM.
-36.2

Consider the compound Cc1ccc(S(=O)(=O)N2CCC(N3CCCCCC3)CC2)cc1 and give its recorded hERG current change (%, negative = inhibition) at 10uM.
-23.2

Consider the compound COc1ccc(Cl)cc1NC(=O)CN(C)Cc1ccc(OC)c(OC)c1 and give its recorded hERG current change (%, negative = inhibition) at 10uM.
-9.72

Consider the compound CCOC(=O)Cn1c(=O)c2c(nc3n2CCCCN3c2ccc(OCC)cc2)n(C)c1=O and give its recorded hERG current change (%, negative = inhibition) at 10uM.
-41.4

Consider the compound O=[N+]([O-])c1cccc(Cl)c1NCCNS(=O)(=O)c1ccccc1 and give its recorded hERG current change (%, negative = inhibition) at 10uM.
-15.2

Consider the compound COc1cccc(-c2nc(CS(=O)(=O)CC(=O)NCCC(C)C)c(C)o2)c1 and give its recorded hERG current change (%, negative = inhibition) at 10uM.
-10.7
